Test system: Human Non-Small Cell Lung Cancer Cell Line (A549)
Test Protocol: Tumor cell proliferation assay (MTT), A549
Type: cell-based
Assay Context: secondary screening, 48 hours
Excerpt: The assay used generally is the blue tetrazolium bromide (MTT) method. […] The amount of formazan can be detected by the microplate reader through the absorption value at 570 nm. […] The assay used generally is the blue tetrazolium bromide (MTT) method. […] Intracellular purple formazan salt crystals can be solved in DMSO and the absorption value at 570 nm is detected by the microplate reader, then the number of living cells can be detected indirectly. […]
Quantity: IC50 (nM)

Reference set (2 entries):
{"Molecule": "Cc1[nH]c2c(c1C(=O)NCC(O)CN1CCN(C)CC1)CCC/C2=C1/C(=O)Nc2ccccc21 (stereo not drawn)", "Quantity": "IC50", "U": "nM", "Test Value": 1360}
{"Molecule": "CCN(CC)CC(O)CNC(=O)c1c(C)[nH]c2c1CCC/C2=C1/C(=O)Nc2ccccc21 (stereo not drawn)", "Quantity": "IC50", "U": "nM", "Test Value": 2010}

P: CCN(CC)CC(O)CNC(=O)c1c(C)[nH]c2c1CCC/C2=C1/C(=O)Nc2ccc(Cl)cc21 (stereo not drawn)
Q: CCN(CC)CCNC(=O)c1c(C)[nH]c2c1CCC/C2=C1/C(=O)Nc2ccc(Cl)cc21
R: Cc1[nH]c2c(c1C(=O)NCC(O)CN1CCCCC1)CCC/C2=C1/C(=O)Nc2ccc(Cl)cc21 (stereo not drawn)
S: CCN(CC)CCNC(=O)c1c(C)[nH]c2c1CCC/C2=C1/C(=O)Nc2ccc(C)cc21
Give the ascending ranking of the items by reported IC50. The reply should contain the labels ordered as requested.
S, P, Q, R
(S: 1010 nM, P: 2380 nM, Q: 4950 nM, R: 14500 nM)
